System: Jurkat cells
Experiment: IL-2 secretion assay in Jurkat cells activated with CD3/CD28 T Cell Activator
Assay type: cell-based
Details: Homo sapiens; Jurkat cells, CD3/CD28 T Cell Activator, 24 h, IL-2 AlphaLISA; read-out: IL-2 Secretion (EC50)
ATTRIBUTE MEASURED: EC50

// worked examples, EC50 included
{"COMPOUND": "CC1CC(c2cccc(NC(=O)c3cc(CN4CCC[C@H](C)C4)cn(C4CC4)c3=O)c2)(c2nncn2C)C1 (mixture of isomers)", "ASSAY TARGET": "Jurkat cells", "ATTRIBUTE MEASURED": "EC50", "ENDPOINT RESULT": "< 100 nM"}
{"COMPOUND": "C[C@H]1CCCN(Cc2cc(C(=O)Nc3cc(-c4ccc(C#N)cc4-c4nccn4C)cc(Cl)n3)c(=O)n(C3CC3)c2)C1", "ASSAY TARGET": "Jurkat cells", "ATTRIBUTE MEASURED": "EC50", "ENDPOINT RESULT": "100 to 1000 nM"}
{"COMPOUND": "CO[C@@H](C)CNCc1cc(C(=O)Nc2cc(-c3ccc(OC(F)F)cc3C(=O)N3CC(F)(F)C3)cc(C3CC3)n2)c(=O)n(C)c1", "ASSAY TARGET": "Jurkat cells", "ATTRIBUTE MEASURED": "EC50", "ENDPOINT RESULT": "> 5000 nM"}
{"COMPOUND": "COCC1(NCc2cc(C(=O)Nc3cc(-c4ccc(C#N)cc4-c4nncn4C(F)F)cc(C4CC4)n3)c(=O)n(C3CC3)c2)CCC1", "ASSAY TARGET": "Jurkat cells", "ATTRIBUTE MEASURED": "EC50", "ENDPOINT RESULT": "100 to 1000 nM"}

### Prompt Record request: EC50 value, item `COCCNCc1cc(C(=O)Nc2cc(-c3ccc(C#N)cc3-c3nc(C(F)(F)F)cn3C)cc(C3CC3)n2)c(=O)n(C2CC2)c1`
### Response 1000 to 5000 nM

### Prompt Record request: EC50 value, item `CC(C)n1cc(CN2CCC[C@H](C)C2)cc(C(=O)Nc2cc(-c3ccc(F)cc3-c3nncn3C)cc(C3CC3)n2)c1=O`
### Response < 100 nM

### Prompt Record request: EC50 value, item `C[C@H]1CCCN(Cc2cc(C(=O)Nc3cccc(C4(c5nncn5C)CC(F)(F)C4)c3)c(=O)n(C3CC3)c2)C1`
### Response 100 to 1000 nM

### Prompt Record request: EC50 value, item `C[C@H]1CCCN(Cc2cc(C(=O)Nc3cc(-c4ccc(F)cc4-c4nncn4C)cc(C4CC4)n3)c(=O)n(CC3CC3)c2)C1`
### Response < 100 nM

### Prompt Record request: EC50 value, item `COC[C@@H](C)NCc1cc(C(=O)Nc2cc(-c3ccc(F)cc3-c3nncn3C)cc(C3CC3)n2)c(=O)n(C2CC2)c1`
### Response < 100 nM

###

Molecular target: Cbl-b (Homo sapiens)
Construct: biotin (biotinylated protein)
Sequence (Q13191 whole entry, species assumed): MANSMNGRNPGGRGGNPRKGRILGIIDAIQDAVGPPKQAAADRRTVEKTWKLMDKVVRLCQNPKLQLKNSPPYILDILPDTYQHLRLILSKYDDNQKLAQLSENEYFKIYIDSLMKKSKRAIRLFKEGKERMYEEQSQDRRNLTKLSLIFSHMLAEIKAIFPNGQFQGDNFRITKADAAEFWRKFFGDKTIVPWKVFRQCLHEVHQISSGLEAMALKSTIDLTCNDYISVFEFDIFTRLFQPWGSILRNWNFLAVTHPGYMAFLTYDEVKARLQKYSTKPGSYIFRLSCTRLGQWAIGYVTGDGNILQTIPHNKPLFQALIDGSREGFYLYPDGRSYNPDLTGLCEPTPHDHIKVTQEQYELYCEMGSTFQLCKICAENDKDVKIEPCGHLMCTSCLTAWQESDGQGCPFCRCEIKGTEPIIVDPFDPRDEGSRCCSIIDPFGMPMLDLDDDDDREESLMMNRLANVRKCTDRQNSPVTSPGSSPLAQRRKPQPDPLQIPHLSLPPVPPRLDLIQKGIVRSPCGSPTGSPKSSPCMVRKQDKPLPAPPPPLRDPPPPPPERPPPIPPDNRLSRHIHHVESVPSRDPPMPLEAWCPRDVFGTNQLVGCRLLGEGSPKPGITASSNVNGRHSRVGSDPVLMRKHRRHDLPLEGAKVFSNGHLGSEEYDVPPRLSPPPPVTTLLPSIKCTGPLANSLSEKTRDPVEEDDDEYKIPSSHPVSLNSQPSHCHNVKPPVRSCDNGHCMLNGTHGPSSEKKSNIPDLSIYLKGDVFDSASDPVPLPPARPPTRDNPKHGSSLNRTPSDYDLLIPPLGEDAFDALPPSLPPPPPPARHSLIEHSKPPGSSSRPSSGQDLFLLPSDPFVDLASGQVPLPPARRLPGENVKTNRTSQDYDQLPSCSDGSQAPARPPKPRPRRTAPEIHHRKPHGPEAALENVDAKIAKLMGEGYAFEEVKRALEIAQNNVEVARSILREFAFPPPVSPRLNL
Assay: Cbl-b probe displacement HTRF binding assay
Conditions: 0.4 nM Cbl-b, 150 nM BODIPY probe
Listed next: entries and their corresponding IC50.

// worked examples, IC50 included
{"MOLECULE": "CC(C)Nc1cc(-c2ccc(Cl)cc2C(=O)N2CC(F)(F)C2)cc(NC(=O)c2cc(CN[C@@H](C)C3CC3)cn(C3CC3)c2=O)n1 [Example 219]", "IC50": "< 100 nM"}
{"MOLECULE": "CO[C@@H](C)CNCc1cc(C(=O)Nc2cc(-c3ccc(C(F)F)cc3C(=O)N3CC(F)(F)C3)cc(C3CC3)n2)c(=O)n(C2CC2)c1 [Example 300]", "IC50": "< 100 nM"}
{"MOLECULE": "COCCNCc1cc(C(=O)Nc2cc(-c3ccc(C#N)cc3-c3nncn3C)cc(C3CC3)n2)c(=O)n(C2CC2)c1 [Example 3]", "IC50": "< 100 nM"}
{"MOLECULE": "C[C@H]1CCCN(Cc2cc(C(=O)Nc3cc(-c4ccc(C(N)=O)cc4-c4nccn4C)cc(C4CC4)n3)c(=O)n(C3CC3)c2)C1 [Example 44]", "IC50": "100 to 1000 nM"}

### Prompt API: value(readout= IC50, system= Cbl-b (Homo sapiens), query= Cn1cc(CNC[C@@H]2CCCCO2)cc(C(=O)Nc2cc(-c3ccc(C#N)cc3C(=O)N3CC(F)(F)C3)cc(C3CC3)n2)c1=O [Example 190] )
### Response < 100 nM

### Prompt API: value(readout= IC50, system= Cbl-b (Homo sapiens), query= C[C@H](NCc1cc(C(=O)Nc2cc(-c3ccc(C#N)cc3C(=O)N3CC(F)(F)C3)cc(C3CC3)n2)c(=O)n(C2CC2)c1)C1CCC1 [Example 351] )
### Response < 100 nM

###

System: Jurkat cells
Assay: IL-2 secretion assay in Jurkat cells activated with CD3/CD28 T Cell Activator
Format: cell-based
Details: Homo sapiens; Jurkat cells, CD3/CD28 T Cell Activator, 24 h, IL-2 AlphaLISA; read-out: IL-2 Secretion (EC50)
pEC50: −log10 of the molar value.
ATTRIBUTE MEASURED: pEC50

// worked examples, pEC50 included
{"COMPOUND": "O=C(Nc1cc(-c2ccc(OC(F)F)cc2C(=O)N2CC(F)(F)C2)cc(C2CC2)n1)c1cc(CNCC2CCCO2)cn(C2CC2)c1=O (stereo in doubt)", "ATTRIBUTE MEASURED": "pEC50", "ENDPOINT RESULT": "> 7.00"}
{"COMPOUND": "COCCN(C)Cc1cc(C(=O)Nc2cc(-c3ccc(F)cc3-c3nncn3C)cc(C3CC3)n2)c(=O)n(C2CC2)c1", "ATTRIBUTE MEASURED": "pEC50", "ENDPOINT RESULT": "5.30 to 6.00"}
{"COMPOUND": "CO[C@@H](C)CNCc1cc(C(=O)Nc2cc(-c3ccc(F)cc3-c3nncn3C)cc(C3CC3)n2)c(=O)n(C2CC2)c1", "ATTRIBUTE MEASURED": "pEC50", "ENDPOINT RESULT": "> 7.00"}
{"COMPOUND": "Cn1cc(CNC[C@@H]2CCCO2)cc(C(=O)Nc2cc(-c3ccc(OC(F)F)cc3C(=O)N3CC(F)(F)C3)cc(C3CC3)n2)c1=O", "ATTRIBUTE MEASURED": "pEC50", "ENDPOINT RESULT": "> 7.00"}
{"COMPOUND": "CCOc1cc(-c2ccc(Cl)cc2C(=O)N2CC(F)(F)C2)cc(NC(=O)c2cc(CNC[C@@H]3CCCO3)cn(C3CC3)c2=O)n1", "ATTRIBUTE MEASURED": "pEC50", "ENDPOINT RESULT": "> 7.00"}
{"COMPOUND": "N#Cc1ccc(-c2cc(NC(=O)c3cc(CNC[C@@H]4CCCO4)cn(CC(F)(F)F)c3=O)nc(C3CC3)c2)c(C(=O)N2CC(F)(F)C2)c1", "ATTRIBUTE MEASURED": "pEC50", "ENDPOINT RESULT": "> 7.00"}
{"COMPOUND": "Cn1cnnc1-c1cc(F)ccc1-c1cc(NC(=O)c2cc(CNCC3(F)CCC3)cn(C3CC3)c2=O)nc(C2CC2)c1", "ATTRIBUTE MEASURED": "pEC50", "ENDPOINT RESULT": "> 7.00"}
{"COMPOUND": "Cc1ccnnc1-c1cc(F)ccc1-c1cc(NC(=O)c2cc(CN3CCO[C@H](C)C3)cn(C3CC3)c2=O)nc(C2CC2)c1", "ATTRIBUTE MEASURED": "pEC50", "ENDPOINT RESULT": "5.30 to 6.00"}

### Prompt Record request: pEC50 value, item `Cn1cnnc1-c1cc(F)ccc1-c1cc(NC(=O)c2cc(-c3cccc(N)c3)cn(C3CC3)c2=O)nc(C2CC2)c1`
### Response < 5.30

### Prompt Record request: pEC50 value, item `N#Cc1ccc(-c2cc(NC(=O)c3cc(CN4C[C@H]5CC[C@@H]4C5)cn(C4CC4)c3=O)nc(C3CC3)c2)c(-c2nncn2C(F)F)c1`
### Response 6.00 to 7.00

### Prompt Record request: pEC50 value, item `C[C@H]1CCCN(Cc2cc(C(=O)Nc3cc(-c4ccc(F)cc4C(=O)N4CC(F)C4)cc(C4CC4)n3)c(=O)n(C3CC3)c2)C1`
### Response 6.00 to 7.00

###

Listed next: entries and their corresponding pEC50.
Test system: Jurkat cells
Assay: IL-2 secretion assay in Jurkat cells activated with CD3/CD28 T Cell Activator
Assay type: cell-based
Conditions: Homo sapiens; Jurkat cells, CD3/CD28 T Cell Activator, 24 h, IL-2 AlphaLISA; read-out: IL-2 Secretion (EC50)
pEC50: −log10 of the molar value.

### Prompt Record request: pEC50 value, item `COC1CN(Cc2cc(C(=O)Nc3cc(-c4ccc(F)cc4-c4nncn4C)cc(C4CC4)n3)c(=O)n(C3CC3)c2)C1`
### Response 6.00 to 7.00

### Prompt Record request: pEC50 value, item `CCOc1cc(-c2ccc(F)cc2-c2nncn2C)cc(NC(=O)c2cc(CNCCOC)cn(C3CC3)c2=O)n1`
### Response > 7.00

### Prompt Record request: pEC50 value, item `Cc1ocnc1-c1cc(C#N)ccc1-c1cc(NC(=O)c2cc(CNC3(C)CCC3)cn(C3CC3)c2=O)nc(C2CC2)c1`
### Response 6.00 to 7.00

### Prompt Record request: pEC50 value, item `COCCNCc1cc(C(=O)Nc2cc(-c3ccc(F)cc3-n3nccc3C)cc(C3CC3)n2)c(=O)n(C2CC2)c1`
### Response 6.00 to 7.00

### Prompt Record request: pEC50 value, item `COCCNCc1cc(C(=O)Nc2cc(-c3ccc(C#N)cc3-c3nccn3C)cc(C3CC3)n2)c(=O)n(C2CC2)c1`
### Response > 7.00

### Prompt Record request: pEC50 value, item `CN(C)Cc1cc(C(=O)Nc2cc(-c3ccc(F)cc3-c3nncn3C)cc(C3CC3)n2)c(=O)n(C2CC2)c1`
### Response 6.00 to 7.00

### Prompt Record request: pEC50 value, item `CC(C)CNCc1cc(C(=O)Nc2cc(-c3ccc(Cl)cc3C(=O)N3CC(F)(F)C3)cc(C3CC3)n2)c(=O)n(C)c1`
### Response > 7.00

### Prompt Record request: pEC50 value, item `COCCNCc1cc(C(=O)Nc2cc(-c3ccc(C#N)cc3-c3nncn3C(F)F)cc(C3CC3)n2)c(=O)n(C2CC2)c1`
### Response > 7.00

### Prompt Record request: pEC50 value, item `CO[C@@H](C)CNCc1cc(C(=O)Nc2cc(-c3c(F)cc(Cl)cc3C(=O)N3CC(F)(F)C3)cc(C3CC3)n2)c(=O)n(C2CC2)c1`
### Response > 7.00

### Prompt Record request: pEC50 value, item Cn1cnnc1-c1cc(F)ccc1-c1cc(NC(=O)c2cc(C3CCNC3)cn(C3CC3)c2=O)nc(C2CC2)c1 (centres unmarked)
### Response < 5.30

### Prompt Record request: pEC50 value, item C[C@@H]1CN(Cc2cc(C(=O)Nc3cc(-c4ccc(C#N)cc4-c4nccn4C)cc(C4CC4)n3)c(=O)n(C3CC3)c2)CCO1 (single isomer, unassigned)
### Response 5.30 to 6.00
